Ref: patent US20230203095A1

- experiment.notes: Plasma drug concentrations and pharmacokinetics after a single subcutaneous injection of SP peptide or SIPI-D00 peptide in SD rats
- Type: in vivo
- assay.conditions: rat, in vivo, sc, 10 mg/kg
readout: AUC(0-t) (ng·h/mL)

INSERT INTO assay_data (substance, numeric_readout) VALUES
  ('H-GQTYTSG-OH [SP, GQTYTSG, reference compound]', 11.9);

* * *

- experiment.notes: Plasma drug concentrations and pharmacokinetics after a single intravenous or subcutaneous injection of SIPI-G9 in SD rats
- assay.conditions: male, SD, rat, plasma, iv, 1 mg/kg, Plasma G-9 concentration, Mean, SIPI-G9 1 mg/kg i.v., SD rats, 10 min, n=3
Peptide text beside a SMILES is read from it. * marks the point of attachment. X1 = CC(=O)N[C@H]1C(*)O[C@H](CO)[C@@H](O)[C@@H]1O
readout: level at 10 min (ng/mL)

INSERT INTO results (molecule, numeric_readout) VALUES
  ('CC(=O)N[C@H]1C(OC[C@H](NC(=O)[C@@H](NC(=O)[C@H](Cc2ccc(O)cc2)NC(=O)[C@@H](NC(=O)[C@H](CCC(N)=O)NC(=O)CN)[C@@H](C)OC2O[C@H](CO)[C@@H](O)[C@H](O)[C@H]2NC(C)=O)[C@@H](C)O)C(=O)NCC(=O)O)O[C@H](CO)[C@@H](O)[C@@H]1O (stereo partly shown) [SIPI-G9, GQT(Glc)YTS(Glc)G] (H-GQT(X1)YTS(X1)G-OH)', 207);

* * *

- experiment.notes: Stability of each 7-peptide compound in rat whole blood
- Assay type: in vitro ADME
- assay.conditions: rat whole blood, 37° C., 1000 ng/mL, incubation time 5 min; read-out: Recovery rate (%) M±SD
Square brackets hold non-standard residues; d marks the D form. Peptide text beside a SMILES is read from it. * marks the point of attachment. X1 = CC(=O)N[C@H]1C(*)O[C@H](CO)[C@@H](O)[C@@H]1O
Listed here: items and their measured recovery.
readout: recovery (%)

INSERT INTO results (compound, numeric_readout) VALUES
  ('CC(=O)N[C@H]1C(OC[C@H](NC(=O)[C@@H](NC(=O)[C@H](Cc2ccc(O)cc2)NC(=O)[C@@H](NC(=O)[C@H](CCC(N)=O)NC(=O)CN)[C@@H](C)OC2O[C@H](CO)[C@@H](O)[C@H](O)[C@H]2NC(C)=O)[C@@H](C)OC2O[C@H](CO)[C@@H](O)[C@H](O)[C@H]2NC(C)=O)C(=O)NCC(=O)O)O[C@H](CO)[C@@H](O)[C@@H]1O (stereo partly drawn) [SIPI-G4, GQT(Glc)YT(Glc)S(Glc)G] (H-GQT(X1)YT(X1)S(X1)G-OH)', 87.3),
  ('CC(=O)N[C@H]1C(O[C@H](C)[C@H](NC(=O)[C@H](Cc2ccc(O)cc2)NC(=O)[C@@H](NC(=O)[C@H](CCC(N)=O)NC(=O)CN)[C@@H](C)OC2O[C@H](CO)[C@@H](O)[C@H](O)[C@H]2NC(C)=O)C(=O)N[C@@H](CO)C(=O)NCC(=O)O)O[C@H](CO)[C@@H](O)[C@@H]1O (stereo partly drawn) [SIPI-G8, GQT(Glc)YT(Glc)SG] (H-GQT(X1)YT(X1)SG-OH)', 83.2),
  ('C[C@H](O)[C@@H](NC(=O)[C@@H](Cc1ccc(O)cc1)NC(=O)[C@H](NC(=O)[C@@H](CO)NC(=O)CN)[C@H](C)O)C(=O)N[C@H](CCC(N)=O)C(=O)NCC(=O)O [SIPI-D00, GSTYTQG] (H-G[dS][dT][dY][dT][dQ]G-OH)', 101);
